# Subject of test: PI3K (Homo sapiens, UniProt P48736)
# Construct: PI3 Kinase γ IC50; other: PI3 Kinase γ; other: PI3 Kinase γ isoform, fluorescence polarization
# Sequence (P48736 whole entry, canonical isoform): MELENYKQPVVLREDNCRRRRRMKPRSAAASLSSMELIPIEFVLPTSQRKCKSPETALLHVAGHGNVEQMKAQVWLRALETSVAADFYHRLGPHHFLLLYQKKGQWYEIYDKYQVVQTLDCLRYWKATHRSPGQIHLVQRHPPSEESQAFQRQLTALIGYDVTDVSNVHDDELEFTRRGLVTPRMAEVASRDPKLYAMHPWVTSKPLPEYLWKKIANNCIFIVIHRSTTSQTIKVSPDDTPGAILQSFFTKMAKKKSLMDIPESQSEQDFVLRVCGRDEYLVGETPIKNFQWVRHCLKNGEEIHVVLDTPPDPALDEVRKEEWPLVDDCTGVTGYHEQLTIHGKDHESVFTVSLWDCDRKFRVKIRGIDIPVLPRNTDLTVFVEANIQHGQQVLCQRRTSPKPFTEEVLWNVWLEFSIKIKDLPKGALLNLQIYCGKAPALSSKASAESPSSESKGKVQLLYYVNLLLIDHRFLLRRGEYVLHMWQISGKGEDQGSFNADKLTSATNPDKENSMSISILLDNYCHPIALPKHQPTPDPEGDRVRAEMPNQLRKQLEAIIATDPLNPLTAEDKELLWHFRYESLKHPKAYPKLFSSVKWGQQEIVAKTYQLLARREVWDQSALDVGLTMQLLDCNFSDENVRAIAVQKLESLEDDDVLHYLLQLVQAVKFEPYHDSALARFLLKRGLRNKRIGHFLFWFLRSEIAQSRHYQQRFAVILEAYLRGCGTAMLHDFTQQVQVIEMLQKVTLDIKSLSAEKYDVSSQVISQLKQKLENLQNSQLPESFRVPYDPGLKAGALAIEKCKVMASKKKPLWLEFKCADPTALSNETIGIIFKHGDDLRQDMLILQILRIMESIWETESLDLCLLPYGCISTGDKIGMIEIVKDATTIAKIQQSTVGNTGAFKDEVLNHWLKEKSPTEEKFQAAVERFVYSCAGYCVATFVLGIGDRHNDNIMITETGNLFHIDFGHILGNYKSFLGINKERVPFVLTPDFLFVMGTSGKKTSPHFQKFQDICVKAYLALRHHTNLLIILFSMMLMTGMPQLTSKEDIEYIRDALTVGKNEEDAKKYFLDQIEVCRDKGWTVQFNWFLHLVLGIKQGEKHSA
# Method description: Fluorescence polarization assay for PI3K
# Assay type: biochemical
# Run parameters: PI3 Kinase γ; read-out: PI3 Kinase γ IC50
pIC50: −log10 of the molar value.
Readout kind: pIC50

Compound: COC(=O)N1CCC(n2ncc3c(N4CC5CCC(C4)O5)nc(-c4ccc(NC(=O)OCCN(C)C)cc4)nc32)CC1 [Example 115]
Subject of test: PI3K (Homo sapiens, UniProt P48736)
pIC50: 5.05

(1) Cn1ncc2c(N3CC4CCC(C3)O4)nc(-c3ccc(NC(=O)Nc4ccc(CCO)cc4)cc3)nc21 [Example 232]
(2) CCNC(=O)Nc1ccc(-c2nc(N3CC4CCC(C3)O4)c3cnn(CC)c3n2)cc1 [Example 41]
Could you tell me which of these two has the smaller pIC50 figure? First: 1 Second: 2 Refer to your chosen entry by its label in the reply.
2
